test_target: P2Y12 receptor on platelets (Homo sapiens)
Construct: endogenous in cells
Sequence (Q9H244 whole entry): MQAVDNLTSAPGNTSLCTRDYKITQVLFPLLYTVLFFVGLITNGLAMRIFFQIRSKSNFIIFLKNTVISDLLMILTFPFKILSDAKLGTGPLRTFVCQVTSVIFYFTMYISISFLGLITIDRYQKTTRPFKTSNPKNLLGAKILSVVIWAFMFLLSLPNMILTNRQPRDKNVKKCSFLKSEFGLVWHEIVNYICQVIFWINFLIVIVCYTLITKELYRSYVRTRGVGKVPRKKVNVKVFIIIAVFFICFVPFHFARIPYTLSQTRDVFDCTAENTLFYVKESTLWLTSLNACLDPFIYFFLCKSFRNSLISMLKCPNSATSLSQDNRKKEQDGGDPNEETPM
assay_text: platelet ADP receptor binding assay (ARB): inhibition of [3H]2-MeS-ADP binding to platelets
experimental_setup: apyrase-washed human platelets
pIC50: −log10 of the molar value.
Item-by-item account of pIC50

1) CNc1cc2[nH]c(=O)n(-c3ccc(NC(=O)NS(=O)(=O)c4ccc(Cl)s4)cc3)c(=O)c2cc1F    > 7.30

Dear colleague, please send me the reported pIC50 for `CNc1cc2[nH]c(=O)n(-c3ccc(NC(=O)NS(=O)(=O)c4ccc(Cl)s4)cc3)c(=O)c2cc1Cl` when you can.
6.30 to 7.30

Measured values drawn from patent US8058284B2 for this set.
